Reference for the values: ChEMBL document CHEMBL3507680

Hi there, I'd appreciate the recorded cytotoxicity at 70.5 h for every entry that follows.
ASSAY_PROCEDURE: Human HepG2 cell viability assay in 384 well format
Type: toxicity, cell-based
Parameters: dose 125 nL, time 70.5 hour; concentration not given beside the values
CONDITION_SET: HepG2 cells, read-out: Inhibition
One number for each entry, in %.

SMILES_REPR | cytotoxicity at 70.5 h, %
CC(C)OCCN1CCc2cncnc2C1 | 4.2
CN(Cc1nc(C(F)(F)F)cs1)C(=O)CCc1cccnc1 | -10.4
O=C1[C@H]2CN(CC3CCOCC3)C[C@H]2CN1Cc1cccc(F)c1 | 4.65
N#Cc1cc(S(N)(=O)=O)ccc1N1CCN(c2ccccc2)CC1 | 1.86
O=C(COc1ccc(-c2ccccc2)nc1)NCC1CC1 | -5.26

// cytotoxicity at 70.5 h lookup, molecule = "Cc1ccc2c(n1)N(CCN(C)C)CCN(C(=O)c1cscn1)C2" , result: -7.14
